measurement_target: DLG1_3, Q12959
Sequence (Q12959 457-571): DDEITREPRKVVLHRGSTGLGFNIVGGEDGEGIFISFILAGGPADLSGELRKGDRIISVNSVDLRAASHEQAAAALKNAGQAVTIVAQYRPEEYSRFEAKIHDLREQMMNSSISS
assay_details: holdup assay
Set-up: key: below the threshold = too weak to quantify, mostly under pKd 3.1 to 4
measurement_parameters: plain residues with an end cap or a label only (N-terminal biotin on a linker: ado-ado)
readout_label: pKd

1. GFGEERESIL [KIDINS220, Q9ULH0]	below the threshold
2. FVHPILQSAV [PRKCA, P17252]	3.85
3. TETASVCTKV [SLC23A1, Q9UHI7]	below the threshold
4. QKNKDKEYYV [NRXN3_rs746444206, Q9Y4C0]	below the threshold

Values compiled from paper PMC9482650.
